# ASSAYED SYSTEM: Bombyx mori EcR (VP16 fusion, CVBE switch construct) (Bombyx mori, UniProt P49881)
# Sequence (P49881 86-606): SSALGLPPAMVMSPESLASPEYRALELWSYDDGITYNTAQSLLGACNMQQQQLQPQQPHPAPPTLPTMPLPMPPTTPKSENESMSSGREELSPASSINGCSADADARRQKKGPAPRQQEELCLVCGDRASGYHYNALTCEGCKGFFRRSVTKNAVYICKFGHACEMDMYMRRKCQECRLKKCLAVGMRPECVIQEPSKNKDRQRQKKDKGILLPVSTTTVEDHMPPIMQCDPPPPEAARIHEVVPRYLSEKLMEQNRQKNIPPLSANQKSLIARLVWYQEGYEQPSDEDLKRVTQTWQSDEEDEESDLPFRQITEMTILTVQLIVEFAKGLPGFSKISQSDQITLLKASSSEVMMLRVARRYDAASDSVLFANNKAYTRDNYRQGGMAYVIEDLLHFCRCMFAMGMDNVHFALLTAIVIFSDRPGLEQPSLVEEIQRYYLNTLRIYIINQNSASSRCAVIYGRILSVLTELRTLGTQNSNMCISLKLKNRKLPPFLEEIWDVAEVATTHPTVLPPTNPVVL
# Sequence (P19793 whole entry partner, the tested form may be a part): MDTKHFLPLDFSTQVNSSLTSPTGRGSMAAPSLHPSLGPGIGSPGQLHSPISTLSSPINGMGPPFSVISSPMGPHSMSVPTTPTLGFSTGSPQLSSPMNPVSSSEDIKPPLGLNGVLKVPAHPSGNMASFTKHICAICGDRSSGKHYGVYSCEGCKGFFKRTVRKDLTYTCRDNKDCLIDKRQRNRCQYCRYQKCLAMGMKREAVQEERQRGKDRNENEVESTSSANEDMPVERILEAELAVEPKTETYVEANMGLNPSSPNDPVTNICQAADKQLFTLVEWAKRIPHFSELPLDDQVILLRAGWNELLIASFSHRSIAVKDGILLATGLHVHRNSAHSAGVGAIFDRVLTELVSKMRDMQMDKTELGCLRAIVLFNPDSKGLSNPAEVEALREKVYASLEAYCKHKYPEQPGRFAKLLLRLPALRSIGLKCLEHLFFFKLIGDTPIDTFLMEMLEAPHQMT
# ASSAY OVERVIEW: Z3 Assay (HEK-293 cells with CVBE and 6XEcRE LacZ, β-galactosidase reporter)
# EXPERIMENTAL PARAMETERS: read-out: Z3 assay EC50; HEK-293 Z3 cells, β-galactosidase reporter; average of two wells
Reported pEC50 values for a set of molecules
# pEC50 = -log10(concentration in molar units)

# annotated cases, reported pEC50 shown
Return reported pEC50; argument: CCc1ccc(C(=O)NN(C(=O)c2ccccc2OC)C(C)(C)C)c(F)c1 [RG-115422]
6.40

// query: COc1cccc(C(=O)NN(C(=O)c2cc(C)ccc2Cl)C(C)(C)C)c1Cl [RG-101248]
5.84

// query: Cc1cc(C)cc(C(=O)N(NC(=O)c2cccc([N+](=O)[O-])c2C)C(C)(C)C)c1 [RG-100915]
6.00

// query: CCc1c(OC)cccc1C(=O)NN(C(=O)c1cc(OC)c(C)c(OC)c1)C(CC)C(C)(C)C (centres unmarked) [RG-115831]
6.99

// query: Cc1cc(C)cc(C(=O)N(NC(=O)c2cc3c(cc2Cl)OCO3)C(C)(C)C)c1 [RG-101171]
5.49

// query: CCc1c(OC)cccc1C(=O)NN(C(=O)c1cc(C)ccc1[N+](=O)[O-])C(C)(C)C [RG-115162]
7.16

// query: CCc1ccc(C(=O)NN(C(=O)c2ccccc2CC)C(C)(C)C)cc1 [RG-102592]
5.41

// query: CCc1c(C(=O)NN(C(=O)c2ccc(Cl)cc2F)C(C)(C)C)ccc2c1OCCO2 [RG-115514]
7.25

---
Return reported pEC50; argument: CCc1ccc(C(=O)NN(C(=O)c2cc(Cl)nc(Cl)c2)C(C)(C)C)c(F)c1 [RG-115128]
6.61

// query: CCc1c(C(=O)NN(C(=O)c2ccc(Cl)cc2OC)C(C)(C)C)ccc2c1OCO2 [RG-115085]
6.71

// query: CCc1ccc(C(=O)NN(C(=O)c2cc(C)cc(C)c2)C(C)C(C)(C)C)cc1 (centres unmarked) [RG-103451]
7.08
